The compounds listed here are annotated with their Papp.
# experiment_notes: PAMPA passive permeability;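 further: passive permeability across an artificial membrane in 96-well pre-coated PAMPA plates, which lack transporters and efflux systems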
# Assay type: in vitro ADME
# settings: Pe Avg
Starred links: 1 amine or outer side, 2 acyl side, 3 side chain; linkers in the order of their positions; H or OH if unused. Non-standard residues stand in square brackets, D forms with d. Residues, ends and D or L forms follow the SMILES beside them. X13 = CC[C@H](C)[C@H](NC(=S)[C@@H]1CCCN1[*:1])C(=O)[*:2]
experimental_readout: Papp (×10⁻⁶ cm/s)

CC(C)C[C@@H]1NC(=O)[C@@H](CC(C)C)NC(=O)[C@H]2CCCN2C(=O)[C@H](CC(C)C)NC(=O)[C@@H](CC(C)C)NC(=O)[C@H](CC(C)C)NC(=O)[C@@H]2CCCN2C(=O)[C@@H](C)NC1=O [compound 12] (cyclo(L[dA]PL[dL]L[dP][dL])) ... 3
CC[C@H](C)[C@@H]1NC(=S)[C@@H]2CCCN2C(=O)[C@H]([C@@H](C)CC)NC(=O)[C@@H]2CCCN2C(=O)[C@H](Cc2ccccc2)NC(=O)[C@H](C)NC(=O)[C@H](C)NC1=O [11g] (cyclo(AAFPI[X13])) ... 0.3

----------
# experiment_notes: in vitro
# settings: pig, simulated intestinal fluid
Starred links: 1 amine or outer side, 2 acyl side, 3 side chain; linkers in the order of their positions; H or OH if unused. Non-standard residues stand in square brackets, D forms with d. Residues, ends and D or L forms follow the SMILES beside them. X6 = O=C([C@H](Cc1ccc(O)cc1)NC(=S)[C@H]1CCCN1[*:1])[*:2]; X5 = CC(C)C[C@H](NC(=S)[C@H](CC(C)C)N[*:1])C(=O)[*:2]; X4 = CC(C)C[C@H](N[*:1])C(=S)N1CCC[C@@H]1C(=O)[*:2]
experimental_readout: remaining at 24 h

CC(C)C[C@@H]1NC(=O)[C@H](Cc2ccc(O)cc2)NC(=O)[C@H]2CCCN2C(=S)[C@H](CC(C)C)NC(=O)[C@H](CC(C)C)NC(=O)[C@@H](CC(C)C)NC1=O [10c] (cyclo(L[dL]L[X4]Y)) ... 12.8%
CC(C)C[C@@H]1NC(=O)[C@H](Cc2ccc(O)cc2)NC(=O)[C@H]2CCCN2C(=O)[C@H](CC(C)C)NC(=S)[C@H](CC(C)C)NC(=O)[C@@H](CC(C)C)NC1=O [10b] (cyclo(L[dL][X5][dP]Y)) ... 10.3%
CC(C)C[C@@H]1NC(=O)[C@H](Cc2ccc(O)cc2)NC(=O)[C@H]2CCCN2C(=O)[C@H](CC(C)C)NC(=O)[C@H](CC(C)C)NC(=O)[C@@H](CC(C)C)NC1=O [compound 10, cyclo(-D-Leu^1-Leu-Leu-D-Pro-Tyr-Leu^6-)] (cyclo(LL[dP]YL[dL])) ... 3%
CC(C)C[C@@H]1NC(=O)[C@H](Cc2ccc(O)cc2)NC(=S)[C@H]2CCCN2C(=O)[C@H](CC(C)C)NC(=O)[C@H](CC(C)C)NC(=O)[C@@H](CC(C)C)NC1=O [10d] (cyclo(LL[X6]L[dL])) ... 5.8%

----------
# experiment_notes: in vitro
# settings: human, microsomes
Starred links: 1 amine or outer side, 2 acyl side, 3 side chain; linkers in the order of their positions; H or OH if unused. Non-standard residues stand in square brackets, D forms with d. Residues, ends and D or L forms follow the SMILES beside them. X4 = CC(C)C[C@H](N[*:1])C(=S)N1CCC[C@@H]1C(=O)[*:2]; NMeL = CN[C@@H](CC(C)C)C(=O)O
The compounds listed here are annotated with their remaining at 1 h.
experimental_readout: remaining at 1 h

CC(C)C[C@@H]1NC(=O)[C@H](Cc2ccc(O)cc2)NC(=O)[C@H]2CCCN2C(=O)[C@H](CC(C)C)N(C)C(=O)[C@H](CC(C)C)NC(=O)[C@@H](CC(C)C)NC1=O [10i] (cyclo(L[NMeL][dP]YL[dL])) ... 2.73%
CC(C)C[C@@H]1NC(=O)[C@H](Cc2ccc(O)cc2)NC(=O)[C@H]2CCCN2C(=S)[C@H](CC(C)C)NC(=O)[C@H](CC(C)C)NC(=O)[C@@H](CC(C)C)NC1=O [10c] (cyclo(L[dL]L[X4]Y)) ... 17%
CC(C)C[C@@H]1NC(=O)[C@@H](CC(C)C)NC(=O)[C@H](CC(C)C)N(C)C(=O)[C@H](Cc2ccc(O)cc2)NC(=O)[C@H]2CCCN2C(=O)[C@H](CC(C)C)NC1=O [10k] (cyclo(LL[dP]Y[NMeL][dL])) ... 5.45%

----------
The compounds listed here are annotated with their Cmax.
# experiment_notes: in vivo
# settings: male, Wistar, rat, po, 10 mg/kg
Starred links: 1 amine or outer side, 2 acyl side, 3 side chain; linkers in the order of their positions; H or OH if unused. Non-standard residues stand in square brackets, D forms with d. Residues, ends and D or L forms follow the SMILES beside them. X3 = CC(C)C[C@H](N[*:1])C(=S)N[C@H](CC(C)C)C(=O)[*:2]; NMeL = CN[C@@H](CC(C)C)C(=O)O
experimental_readout: Cmax (ng/mL)

CC(C)C[C@@H]1NC(=O)[C@H](Cc2ccc(O)cc2)NC(=O)[C@H]2CCCN2C(=O)[C@H](CC(C)C)NC(=O)[C@H](CC(C)C)N(C)C(=O)[C@@H](CC(C)C)NC1=O [10h] (cyclo(L[dL][NMeL]L[dP]Y)) ... 13.1
CC(C)C[C@@H]1NC(=O)[C@@H](CC(C)C)NC(=S)[C@H](CC(C)C)NC(=O)[C@H](Cc2ccc(O)cc2)NC(=O)[C@H]2CCCN2C(=O)[C@H](CC(C)C)NC1=O [10f] (cyclo(LL[dP]Y[X3])) ... 61.7

----------
# experiment_notes: in vitro
# settings: pig, simulated intestinal fluid
Starred links: 1 amine or outer side, 2 acyl side, 3 side chain; linkers in the order of their positions; H or OH if unused. Non-standard residues stand in square brackets, D forms with d. Residues, ends and D or L forms follow the SMILES beside them. X2 = CC(C)C[C@H](NC(=S)[C@@H](CC(C)C)N[*:1])C(=O)[*:2]; NMeY = CN[C@@H](Cc1ccc(O)cc1)C(=O)O; NMeL = CN[C@@H](CC(C)C)C(=O)O
The molecules listed here are annotated with their remaining at 2 h.
experimental_readout: remaining at 2 h (%)

CC(C)C[C@@H]1NC(=O)[C@H](Cc2ccc(O)cc2)NC(=O)[C@H]2CCCN2C(=O)[C@H](CC(C)C)NC(=O)[C@H](CC(C)C)NC(=S)[C@@H](CC(C)C)NC1=O [10a] (cyclo(L[dP]YL[X2])) ... 49.2
CC(C)C[C@@H]1NC(=O)[C@@H](CC(C)C)NC(=O)[C@H](CC(C)C)NC(=O)[C@H](Cc2ccc(O)cc2)N(C)C(=O)[C@H]2CCCN2C(=O)[C@H](CC(C)C)NC1=O [10j] (cyclo(LL[dP][NMeY]L[dL])) ... 21
CC(C)C[C@@H]1NC(=O)[C@H](Cc2ccc(O)cc2)NC(=O)[C@H]2CCCN2C(=O)[C@H](CC(C)C)N(C)C(=O)[C@H](CC(C)C)NC(=O)[C@@H](CC(C)C)NC1=O [10i] (cyclo(L[NMeL][dP]YL[dL])) ... 46

----------
The compounds listed here are annotated with their remaining at 12 h.
# experiment_notes: in vitro
# settings: both, human, plasma
Starred links: 1 amine or outer side, 2 acyl side, 3 side chain; linkers in the order of their positions; H or OH if unused. Non-standard residues stand in square brackets, D forms with d. Residues, ends and D or L forms follow the SMILES beside them. X1 = CC(C)C[C@H](NC(=S)[C@H](Cc1ccc(O)cc1)N[*:1])C(=O)[*:2]; X6 = O=C([C@H](Cc1ccc(O)cc1)NC(=S)[C@H]1CCCN1[*:1])[*:2]; X2 = CC(C)C[C@H](NC(=S)[C@@H](CC(C)C)N[*:1])C(=O)[*:2]; X3 = CC(C)C[C@H](N[*:1])C(=S)N[C@H](CC(C)C)C(=O)[*:2]; X5 = CC(C)C[C@H](NC(=S)[C@H](CC(C)C)N[*:1])C(=O)[*:2]; X4 = CC(C)C[C@H](N[*:1])C(=S)N1CCC[C@@H]1C(=O)[*:2]
experimental_readout: remaining at 12 h (%)

CC(C)C[C@@H]1NC(=O)[C@@H](CC(C)C)NC(=S)[C@H](CC(C)C)NC(=O)[C@H](Cc2ccc(O)cc2)NC(=O)[C@H]2CCCN2C(=O)[C@H](CC(C)C)NC1=O [10f] (cyclo(LL[dP]Y[X3])) ... 54
CC(C)C[C@@H]1NC(=O)[C@H](Cc2ccc(O)cc2)NC(=O)[C@H]2CCCN2C(=O)[C@H](CC(C)C)NC(=O)[C@H](CC(C)C)NC(=O)[C@@H](CC(C)C)NC1=O [compound 10, cyclo(-D-Leu^1-Leu-Leu-D-Pro-Tyr-Leu^6-)] (cyclo(LL[dP]YL[dL])) ... 37
CC(C)C[C@@H]1NC(=O)[C@H](Cc2ccc(O)cc2)NC(=O)[C@H]2CCCN2C(=O)[C@H](CC(C)C)NC(=S)[C@H](CC(C)C)NC(=O)[C@@H](CC(C)C)NC1=O [10b] (cyclo(L[dL][X5][dP]Y)) ... 59
CC(C)C[C@@H]1NC(=O)[C@@H](CC(C)C)NC(=O)[C@H](CC(C)C)NC(=S)[C@H](Cc2ccc(O)cc2)NC(=O)[C@H]2CCCN2C(=O)[C@H](CC(C)C)NC1=O [10e] (cyclo(LL[dP][X1][dL])) ... 61
CC(C)C[C@@H]1NC(=O)[C@H](Cc2ccc(O)cc2)NC(=S)[C@H]2CCCN2C(=O)[C@H](CC(C)C)NC(=O)[C@H](CC(C)C)NC(=O)[C@@H](CC(C)C)NC1=O [10d] (cyclo(LL[X6]L[dL])) ... 64
CC(C)C[C@@H]1NC(=O)[C@H](Cc2ccc(O)cc2)NC(=O)[C@H]2CCCN2C(=O)[C@H](CC(C)C)NC(=O)[C@H](CC(C)C)NC(=S)[C@@H](CC(C)C)NC1=O [10a] (cyclo(L[dP]YL[X2])) ... 56
CC(C)C[C@@H]1NC(=O)[C@H](Cc2ccc(O)cc2)NC(=O)[C@H]2CCCN2C(=S)[C@H](CC(C)C)NC(=O)[C@H](CC(C)C)NC(=O)[C@@H](CC(C)C)NC1=O [10c] (cyclo(L[dL]L[X4]Y)) ... 60
